test system: SNB-78 CNS; assay: NCI tumour cell line growth inhibition, 48 h

>  <COMPOUND>
O=C(CC/C(CC(=O)c1ccc(Br)cc1)=N\O)Nc1ccc(Cl)c(Cl)c1

>  <TGI>
> 100 µM

$$$$
>  <COMPOUND>
O=C1NCCS(=O)(=O)N2CCC[C@@H]12

>  <TGI>
> 100 µM

$$$$
>  <COMPOUND>
COC(=O)C(NC(=O)c1ccccc1)C(c1ccc(Cl)cc1)P(=O)(OC)OC (configuration not stated)

>  <TGI>
> 100 µM

$$$$
>  <COMPOUND>
CC1(C)N=C(c2ccccn2)C(c2ccccn2)=NC1(C)C

>  <TGI>
> 100 µM

$$$$
>  <COMPOUND>
CCCCNC(=O)/N=C/c1c(O)c2ccccc2oc1=O

>  <TGI>
> 100 µM

$$$$
>  <COMPOUND>
OCCN1CCN(CC/C=C2/c3ccccc3Sc3ccc(Cl)cc32)CC1

>  <TGI>
30.2 µM

$$$$
>  <COMPOUND>
CN1C/C(=C\C=C\c2ccccc2)C(=O)/C(=C/C=C/c2ccccc2)C1

>  <TGI>
> 100 µM

$$$$
>  <COMPOUND>
O=NN(CCCl)C(=O)NC1CCC(CC2CCC(NC(=O)N(CCCl)N=O)CC2)CC1 (configuration not stated)

>  <TGI>
> 87.3 µM

$$$$
>  <COMPOUND>
O=S1Nc2c(Cl)cc(Cl)c(Cl)c2S1 (configuration not stated)

>  <TGI>
> 100 µM

$$$$
>  <COMPOUND>
Cn1c(=O)c2/c(n(C)c1=O)=N\C=c1\c(=O)n(C)c(=O)n(C)\c1=N\C=2

>  <TGI>
> 100 µM

$$$$
>  <COMPOUND>
COc1ccc(Sc2ccccc2N)cc1

>  <TGI>
97.3 µM

$$$$
>  <COMPOUND>
CN(C)C(=O)Oc1c(-c2ccccc2)c(=O)n2c3ccccc3n3c(=O)n(C)c(=O)c1c23

>  <TGI>
> 100 µM

$$$$

---

system: SK-MEL-28 melanoma; experiment: NCI tumour cell line growth inhibition, 48 h

>  <MOLECULE>
COc1ccccc1C(=O)N(C)c1ccc(Cl)c(C(=O)OC(C)C)c1

>  <TGI>
> 100 µM

$$$$
>  <MOLECULE>
N#CC(C#N)=C1C(=O)NC(N)=C1C#N

>  <TGI>
> 100 µM

$$$$
>  <MOLECULE>
CCN1CCC(O)(/C=C/c2ccc(OC)cc2)C(C(=O)/C=C/c2ccc(OC)cc2)C1 (stereo unspecified)

>  <TGI>
24.4 µM

$$$$
>  <MOLECULE>
CCc1cccc(C)c1NC(=O)CC1C(=O)Nc2ccccc2S1(=O)=O (stereo unspecified)

>  <TGI>
48.1 µM

$$$$
>  <MOLECULE>
O=C(O)C(Oc1nc(=S)[nH]c(=S)[nH]1)(c1ccc(Cl)cc1)c1ccc(Cl)cc1

>  <TGI>
> 100 µM

$$$$
>  <MOLECULE>
CCCCCCCCCCCCCCCC1=NC(C)(C)CN1C(C)C

>  <TGI>
3 µM

$$$$
>  <MOLECULE>
Cc1c(C(=O)O)n2cnnc2c2ccccc12

>  <TGI>
> 100 µM

$$$$
>  <MOLECULE>
O=C(O)CCC(NC(=O)c1ccc(Nc2nc3cc(C(F)(F)F)ccc3nc2C(=O)O)cc1)C(=O)O (stereo unspecified)

>  <TGI>
> 100 µM

$$$$
>  <MOLECULE>
CCN(Cc1c(Cl)cccc1Cl)c1ccc(CO)c(Cl)c1

>  <TGI>
25.5 µM

$$$$
>  <MOLECULE>
Cc1ccc(-n2cc([Si](C)(C)C)nn2)s1

>  <TGI>
> 100 µM

$$$$
>  <MOLECULE>
O=C1OCC2=C1C(c1ccccc1)c1cc3c(cc1N2CCO)OCCO3 (stereo unspecified)

>  <TGI>
> 50 µM

$$$$

---

Collected GI50 values appear next to each entry.
test system: K-562 leukemia; assay: NCI tumour cell line growth inhibition, 48 h
MEASURED_ENDPOINT: GI50

>  <SMILES_NOTATION>
Cc1c(Cl)cccc1NC(=O)c1sc2nc3c(cc2c1N)CCCCC3

>  <MEASURED_ENDPOINT>
GI50

>  <OBSERVED_MEASUREMENT>
166 nM

$$$$
>  <SMILES_NOTATION>
O=C1C(Cl)=C(Nc2cccc(C(F)(F)F)c2)C(=O)N1Cc1ccc(Cl)cc1

>  <MEASURED_ENDPOINT>
GI50

>  <OBSERVED_MEASUREMENT>
1330 nM

$$$$
>  <SMILES_NOTATION>
Oc1ccc(N=Nc2ccccn2)c(O)c1

>  <MEASURED_ENDPOINT>
GI50

>  <OBSERVED_MEASUREMENT>
582 nM

$$$$

---

Collected TGI values appear next to each entry.
system: M14 melanoma; test: NCI tumour cell line growth inhibition, 48 h
MEASURED_ENDPOINT: TGI (µM)

>  <COMPOUND>
CCC(NC1=NCCO1)c1cccs1 (stereo unspecified)

>  <TARGET_DESC>
M14 melanoma

>  <READOUT_QUALIFIER>
=

>  <OBSERVED_MEASUREMENT>
33.3

$$$$
>  <COMPOUND>
COc1ccc(C(=O)/C=C/c2cc(O)c(O)cc2F)c(OC)c1

>  <TARGET_DESC>
M14 melanoma

>  <READOUT_QUALIFIER>
=

>  <OBSERVED_MEASUREMENT>
23.9

$$$$
>  <COMPOUND>
CCN1CCC(O)(/C=C/c2ccc(OC)cc2)C(C(=O)/C=C/c2ccc(OC)cc2)C1 (stereo unspecified)

>  <TARGET_DESC>
M14 melanoma

>  <READOUT_QUALIFIER>
=

>  <OBSERVED_MEASUREMENT>
34.1

$$$$
>  <COMPOUND>
COc1cc(NC(=O)C2=C(N3CCOCC3)/C(=C/c3ccc(Cl)cc3)CC2)cc(OC)c1OC

>  <TARGET_DESC>
M14 melanoma

>  <READOUT_QUALIFIER>
>

>  <OBSERVED_MEASUREMENT>
100

$$$$
>  <COMPOUND>
CC(C)(C)CC(C)(C)c1ccc(O)c(C[N+](C)(C)[O-])c1

>  <TARGET_DESC>
M14 melanoma

>  <READOUT_QUALIFIER>
>

>  <OBSERVED_MEASUREMENT>
100

$$$$
>  <COMPOUND>
N#CCC(=O)N1CCCCCCC1

>  <TARGET_DESC>
M14 melanoma

>  <READOUT_QUALIFIER>
>

>  <OBSERVED_MEASUREMENT>
100

$$$$

---

system: HCT-15 colon; assay: NCI tumour cell line growth inhibition, 48 h
Collected TGI values appear next to each entry.
MEASURED_ENDPOINT: TGI (µM)

>  <COMPOUND>
CCSc1ccc(C2C(Br)C(=O)N2c2cc(OC)c(OC)c(OC)c2)cc1 (stereo not drawn)

>  <SCALE_UNIT>
µM

>  <READOUT_QUALIFIER>
=

>  <OBSERVED_MEASUREMENT>
18.2

$$$$
>  <COMPOUND>
O=C(O)C(=O)/C=C(\O)c1ccc(Br)cc1

>  <SCALE_UNIT>
µM

>  <READOUT_QUALIFIER>
>

>  <OBSERVED_MEASUREMENT>
100

$$$$
>  <COMPOUND>
COc1ccc(Cn2cc3c(c2-c2cc(OC)c(OC)c(OC)c2)CCc2cnoc2-3)cc1

>  <SCALE_UNIT>
µM

>  <READOUT_QUALIFIER>
>

>  <OBSERVED_MEASUREMENT>
100

$$$$
>  <COMPOUND>
COc1ccc2ccc3oc([N+](=O)[O-])cc3c2c1

>  <SCALE_UNIT>
µM

>  <READOUT_QUALIFIER>
=

>  <OBSERVED_MEASUREMENT>
1.27

$$$$
>  <COMPOUND>
CC(C)=CC(=O)Cc1nc2ccc([N+](=O)[O-])cc2[nH]c1=O

>  <SCALE_UNIT>
µM

>  <READOUT_QUALIFIER>
>

>  <OBSERVED_MEASUREMENT>
100

$$$$
>  <COMPOUND>
Cc1cccc(Cc2cnc(NC(=O)CCc3ccc(C)o3)s2)c1

>  <SCALE_UNIT>
µM

>  <READOUT_QUALIFIER>
>

>  <OBSERVED_MEASUREMENT>
100

$$$$
>  <COMPOUND>
C/C=N\N1C(=O)c2ccccc2C1=O

>  <SCALE_UNIT>
µM

>  <READOUT_QUALIFIER>
>

>  <OBSERVED_MEASUREMENT>
100

$$$$
>  <COMPOUND>
COc1cc2c3c(n(C)c(=O)c2cc1OC)-c1cc2c(cc1/C3=C\CCNCCCN)OCO2

>  <SCALE_UNIT>
µM

>  <READOUT_QUALIFIER>
=

>  <OBSERVED_MEASUREMENT>
39.6

$$$$
>  <COMPOUND>
N#CC1C=Cc2c(ccc3ccccc23)N1C(=O)c1ccccc1 (stereo not drawn)

>  <SCALE_UNIT>
µM

>  <READOUT_QUALIFIER>
>

>  <OBSERVED_MEASUREMENT>
100

$$$$
>  <COMPOUND>
CN(C)CCCn1c(-c2nonc2N)nc2cnccc21

>  <SCALE_UNIT>
µM

>  <READOUT_QUALIFIER>
>

>  <OBSERVED_MEASUREMENT>
25

$$$$
>  <COMPOUND>
CC#Cc1nc(Nc2cc(C)[nH]n2)c2ccccc2n1

>  <SCALE_UNIT>
µM

>  <READOUT_QUALIFIER>
=

>  <OBSERVED_MEASUREMENT>
12.8

$$$$
>  <COMPOUND>
COC(=O)c1c(O)ccc2c1c1c(n2Cc2ccccc2)C(=O)c2ccccc2C1

>  <SCALE_UNIT>
µM

>  <READOUT_QUALIFIER>
>

>  <OBSERVED_MEASUREMENT>
100

$$$$
>  <COMPOUND>
Cc1nc2ccccc2c(/C=C/c2ccc(Cl)cc2)c1C(=O)/C=C/c1ccccc1

>  <SCALE_UNIT>
µM

>  <READOUT_QUALIFIER>
=

>  <OBSERVED_MEASUREMENT>
4.03

$$$$
>  <COMPOUND>
C[C@H]1COC2=C1C(=O)C(=O)c1c2ccc2c1CCCC2(C)C

>  <SCALE_UNIT>
µM

>  <READOUT_QUALIFIER>
=

>  <OBSERVED_MEASUREMENT>
18.6

$$$$
>  <COMPOUND>
Oc1ccc(Cc2cc(Cl)cc(Cl)c2O)cc1Cl

>  <SCALE_UNIT>
µM

>  <READOUT_QUALIFIER>
=

>  <OBSERVED_MEASUREMENT>
35.2

$$$$
>  <COMPOUND>
COc1ccc(N2NC(c3ccccc3)(c3ccccc3)C(C)C2=O)cc1 (stereo not drawn)

>  <SCALE_UNIT>
µM

>  <READOUT_QUALIFIER>
>

>  <OBSERVED_MEASUREMENT>
100

$$$$
>  <COMPOUND>
Cc1cc(I)cc(CN(C)CCCN2CCN(C)CC2)c1O

>  <SCALE_UNIT>
µM

>  <READOUT_QUALIFIER>
=

>  <OBSERVED_MEASUREMENT>
59

$$$$
>  <COMPOUND>
S=c1[nH]c2ccc(I)cc2c(=S)n1Cc1ccccc1

>  <SCALE_UNIT>
µM

>  <READOUT_QUALIFIER>
=

>  <OBSERVED_MEASUREMENT>
23.3

$$$$
>  <COMPOUND>
CC(C)(C)c1ccc(NS(=O)(=O)c2ccc3nc(NC(=O)c4cnccn4)[nH]c3c2)cc1

>  <SCALE_UNIT>
µM

>  <READOUT_QUALIFIER>
=

>  <OBSERVED_MEASUREMENT>
14.6

$$$$
>  <COMPOUND>
Fc1cc(-c2cc(-c3ccc4c(c3)OCO4)n[nH]2)c(Cl)cc1Cl

>  <SCALE_UNIT>
µM

>  <READOUT_QUALIFIER>
=

>  <OBSERVED_MEASUREMENT>
49.1

$$$$
>  <COMPOUND>
COC(=O)c1nn(C(=N)c2ccc(Cl)cc2)c2c1CCC2

>  <SCALE_UNIT>
µM

>  <READOUT_QUALIFIER>
>

>  <OBSERVED_MEASUREMENT>
100

$$$$
>  <COMPOUND>
Cc1ccc(-c2cc(O)c(-c3ccc(C)cc3C)cc2O)c(C)c1

>  <SCALE_UNIT>
µM

>  <READOUT_QUALIFIER>
=

>  <OBSERVED_MEASUREMENT>
18.9

$$$$
>  <COMPOUND>
Cc1ccc(N=C2C(=Nc3ccc(C)cc3)N(c3ccc(C)cc3)C(=S)N2C(=O)c2ccccc2)cc1

>  <SCALE_UNIT>
µM

>  <READOUT_QUALIFIER>
>

>  <OBSERVED_MEASUREMENT>
100

$$$$
